Listing: pIC50 of selected compounds
Target: Endothelin-converting enzyme 1 (Homo sapiens)
Sequence (P42892 whole entry): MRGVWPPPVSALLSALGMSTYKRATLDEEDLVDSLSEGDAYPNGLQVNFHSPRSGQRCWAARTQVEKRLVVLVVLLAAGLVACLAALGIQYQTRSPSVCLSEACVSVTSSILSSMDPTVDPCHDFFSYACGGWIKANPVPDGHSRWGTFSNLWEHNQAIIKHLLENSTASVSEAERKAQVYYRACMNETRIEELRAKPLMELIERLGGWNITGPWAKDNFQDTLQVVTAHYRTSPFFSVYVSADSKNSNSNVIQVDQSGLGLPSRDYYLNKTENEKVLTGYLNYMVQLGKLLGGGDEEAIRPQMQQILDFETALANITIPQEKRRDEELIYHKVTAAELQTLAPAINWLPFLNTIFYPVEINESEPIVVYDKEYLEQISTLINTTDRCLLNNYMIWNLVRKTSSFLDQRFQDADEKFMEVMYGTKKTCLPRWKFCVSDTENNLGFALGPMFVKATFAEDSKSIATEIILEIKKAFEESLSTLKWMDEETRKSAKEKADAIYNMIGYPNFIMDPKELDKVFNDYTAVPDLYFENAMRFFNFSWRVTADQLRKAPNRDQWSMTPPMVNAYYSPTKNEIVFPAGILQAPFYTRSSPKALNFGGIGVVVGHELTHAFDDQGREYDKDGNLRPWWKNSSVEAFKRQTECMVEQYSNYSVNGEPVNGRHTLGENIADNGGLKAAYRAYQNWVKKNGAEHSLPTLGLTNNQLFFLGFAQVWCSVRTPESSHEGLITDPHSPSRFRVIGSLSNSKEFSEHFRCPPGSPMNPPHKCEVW
# log scale: pIC50 equals minus log10 of the concentration in mol/L

compound | systemName | valueType | endpointValue
CC(C)C[C@H](S)C(=O)NC1(C(=O)N[C@@H](Cc2ccc(-c3cccs3)nc2)C(=O)O)CCCC1 | Endothelin-converting enzyme 1 (Homo sapiens) | pIC50 | 8.02

The record that follows has no pIC50 shown yet.
Lab note: need pIC50 for CC(C)[C@H](S)C(=O)NC1(C(=O)NC(Cc2ccc(-c3ccoc3)nc2)C(=O)O)CCCC1 (some centres not stated) on Endothelin-converting enzyme 1 (Homo sapiens), anyone have it?
7.41
